Reported koff values follow for various binders
# Experimental system: T1, recombinant human IL-31 (hIL-31, BHK produced, A1277F, zcytor17lig CEE) (human, UniProt Q6EBC2 24-164)
# T1 construct: also called recombinant hIL-31
# T1 sequence: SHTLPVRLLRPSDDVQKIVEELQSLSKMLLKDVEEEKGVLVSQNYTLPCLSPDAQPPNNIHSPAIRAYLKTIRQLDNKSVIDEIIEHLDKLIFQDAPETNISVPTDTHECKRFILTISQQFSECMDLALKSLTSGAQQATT
# Experiment: SPR (Biacore), mAb amine-coupled to CM5 chip, hIL-31 injected
# Description: The purified monoclonal antibodies were immobilized in individual flow cells on a CM5 type sensor chip. Immobilizations were performed using a standard amine coupling procedure, aiming for an immobilization level of 500 Resonance Units (RU). The antibodies were diluted to 1-5 ug/ml in 10 mM NaAc pH 4.5. […] The kinetic parameters were calculated by global fitting of the data using a 1:1 langmuir binding model. […]
Supply the numeric figure in s⁻¹, leaving out any unit text.

{"Binder": "humanized 292.12.3.1 construct clone 21 (12VH5-gly + HC(G24A, S28T, F29L, R94F) + LC(fback)) (antibody, human IgG4, V domains shown) VH: EVQLVQSGAEVKKPGESLKISCKASGYTLTRYWMQWVRQMPGKGLEWMGAIYPGDGDTRYSPSFQGQVTISADKSISTAYLQWSSLKASDTAMYYCAFPDGYYAAPYGMDYWGQGTTVTVSS VL: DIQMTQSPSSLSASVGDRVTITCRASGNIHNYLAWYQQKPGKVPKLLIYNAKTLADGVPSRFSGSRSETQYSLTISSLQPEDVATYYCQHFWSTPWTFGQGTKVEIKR", "Unit tag": "s⁻¹", "koff": "9.7e-05"}

Consider the additional binder presented here.
Ask | Specify measured koff for humanized 292.12.3.1 construct clone 27 (12VH1-gly + HC(F29L, M69L, R94F) + LC(F71Y)) (antibody, human IgG4, V domains shown) VH: QVQLVQSGAEVKKPGASVKVSCKASGYTLTRYWMQWVRQAPGQGLEWMGAIYPGDGDTRYSQKFQGRVTLTRDTSISTVYMELSSLRSEDTAVYYCAFPDGYYAAPYGMDYWGQGTLVTVSS VL: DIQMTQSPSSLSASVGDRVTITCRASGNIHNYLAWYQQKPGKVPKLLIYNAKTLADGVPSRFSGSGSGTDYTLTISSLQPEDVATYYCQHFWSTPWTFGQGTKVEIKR .
Reply | 7.9e-05
